Reference source for all entries: patent US20110039893A1

- assayedSystem: recombinant GSK-3β enzyme (Homo sapiens)
- Construct: FLAG (N)
- Sequence (P49841 whole entry): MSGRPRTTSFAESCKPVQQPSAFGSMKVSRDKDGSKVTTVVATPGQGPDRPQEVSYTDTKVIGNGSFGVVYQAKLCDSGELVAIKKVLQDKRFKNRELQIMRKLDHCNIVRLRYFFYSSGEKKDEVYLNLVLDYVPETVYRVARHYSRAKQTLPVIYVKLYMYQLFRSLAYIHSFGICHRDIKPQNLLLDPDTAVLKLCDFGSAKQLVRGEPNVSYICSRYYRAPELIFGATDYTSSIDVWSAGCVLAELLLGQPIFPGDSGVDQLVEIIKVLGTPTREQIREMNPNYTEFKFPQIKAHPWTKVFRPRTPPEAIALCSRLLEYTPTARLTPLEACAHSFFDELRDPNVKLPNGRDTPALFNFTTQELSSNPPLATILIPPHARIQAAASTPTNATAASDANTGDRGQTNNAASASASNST
- assayOverview: GSK-3β inhibitory activity evaluation (Kinase Glo luminescence, recombinant enzyme)
- cond: recombinant human GSK-3β 100 ng, glycogen synthase-derived substrate peptide, 2.5 μM ATP solution, 30 min room temperature
Reported IC50 values for a set of molecules

Solved cases (2 shown):
# molecule, metric, endpointValue
data = [
    ("O=C(NCc1ccccn1)Nc1cc(N2CC3(CCCCC3)CC2=O)ccn1 [Example 54]", "IC50", "< 100 nM"),
    ("O=C(NCc1ccccn1)Nc1cc(N2CC(c3ccccc3)OC2=O)ccn1 (stereo not drawn) [Example 42]", "IC50", "< 100 nM"),
]

Now consider the entry below.
# query: IC50 of entry O=C(NCc1ccccn1)Nc1cc(N2CC(c3ccccc3)CC2=O)ccn1 (stereo not drawn) [Example 4]
< 100 nM
